Cited source for all entries: patent US6300501A

test system: H61 cells: NIH transformed 3T3 H-ras cells; assay: Clonogenic assay (6 well plates, soft agar); type: cell-based; conditions: 312 h, colonies counted after Day 13, read-out: Clonogenic Assay IC50
Reported pIC50 values for a set of molecules
pIC50 (log units): -log10 of the concentration in mol/L.

# annotated cases, reported pIC50 shown
# molecule, recordedValue
data = [
    ("COc1ccc(CN(CC(=O)NCC(C)c2ccccc2)C(=O)[C@H](Cc2c[nH]cn2)NC(=O)OCc2ccccc2)cc1 (stereo partly shown)", 6.34),
    ("CC(C)(CNC(=O)CN(Cc1ccccc1)C(=O)[C@H](Cc1c[nH]cn1)NC(=O)OCc1ccccc1)c1ccccc1", 6.29),
    ("CC(CNC(=O)CN(Cc1ccc(OCc2cccnc2)cc1)C(=O)[C@H](Cc1c[nH]cn1)NC(=O)OCc1ccccc1)c1ccccc1 (stereo partly shown)", 6.49),
    ("CC(CNC(=O)CN(Cc1ccc(-c2ccccc2)cc1)C(=O)[C@H](Cc1c[nH]cn1)NC(=O)OCc1ccccc1)c1ccccc1 (stereo partly shown)", 6.60),
]

IN: Consider the molecule CN(Cc1ccccc1)C(=O)N[C@@H](Cc1c[nH]cn1)C(=O)N(CC(=O)NCC(C)(C)c1ccccc1)Cc1ccc(OCc2ccccc2)cc1 and give its measured pIC50.
OUT: 7.40

IN: Likewise for CCC(CC)(CNC(=O)CN(Cc1ccc(OCc2ccccc2)cc1)C(=O)[C@H](Cc1cnc[nH]1)NC(=O)OCc1ccccc1)c1ccccc1 ?
OUT: 6.05

IN: What do you get for CC(CNC(=O)CN(Cc1ccc(C(F)(F)F)cc1)C(=O)[C@H](Cc1c[nH]cn1)NC(=O)OCc1ccccc1)c1ccccc1 (stereo partly shown) ?
OUT: 6.66

IN: Can you check CCC(CNC(=O)CN(Cc1ccc(OCc2ccccc2)cc1)C(=O)[C@H](Cc1c[nH]cn1)NC(=O)OCc1ccccc1)c1ccccc1 (stereo partly shown) next?
OUT: 6.40

IN: Try the molecule Cc1cccc(CN(CC(=O)NCC(C)c2ccccc2)C(=O)[C@H](Cc2c[nH]cn2)NC(=O)OCc2ccccc2)c1 (stereo partly shown)
OUT: 6.14

====

target: SF9 affinity purified rat farnesyl protein transferase (Rattus norvegicus, UniProt Q02293+Q04631); construct: made in house; host or cells: Sf9 insect cells (baculovirus system inferred from b7); experiment: PFT inhibitory activity (radiolabeled farnesyl pyrophosphate, streptavidin bead assay); format: biochemical; settings: HEPES buffer pH 7.4, without 5 mM potassium phosphate; read-out: IC50 (μM) Hepes
# log10(IC50) values compiled below
Values are log10 of IC50 in µM.

Before answering, review these 3 worked examples.
# compound, log10(IC50)
data = [
    ("CC(CNC(=O)CN(Cc1ccc(OCc2ccccc2)cc1)C(=O)[C@H](Cc1c[nH]cn1)NC(=O)CCc1ccccc1)c1ccccc1 (stereo partly drawn)", 0.45),
    ("O=C(CN(Cc1ccc(OCc2ccccc2)cc1)C(=O)[C@H](Cc1c[nH]cn1)NC(=O)OCc1ccccc1)NCC(c1ccccc1)c1ccccc1Cl (stereo partly drawn)", -0.70),
    ("Cc1cccc(CN(CC(=O)NCC(C)c2ccccc2)C(=O)[C@H](Cc2c[nH]cn2)NC(=O)OCc2ccccc2)c1 (stereo partly drawn)", -0.21),
]

IN: # input compound: COc1ccccc1CN(CC(=O)NCC(C)(C)c1ccccc1)C(=O)[C@H](Cc1c[nH]cn1)NC(=O)OCc1ccccc1 ; wanted: its log10(IC50)
OUT: -0.42

IN: Further, for O=C(CN(Cc1ccc(OCc2ccccc2)cc1)C(=O)[C@H](Cc1cnc[nH]1)NC(=O)OCc1ccccc1)NCC(O)c1ccccc1 (stereo partly drawn) ?
OUT: 0.20

IN: Field entry: CC(CNC(=O)CN(Cc1ccccc1Cl)C(=O)[C@H](Cc1c[nH]cn1)NC(=O)OCc1ccccc1)c1ccccc1 (stereo partly drawn)
OUT: 0.41
